- conditionSet: siRNA; note: test system not given here
HELM strings list units from the 5' end as sugar, base in round brackets, then linkage (d deoxyribose, r ribose, m 2'-O-methyl, p phosphodiester). Strings are as the collection lists them, not checked against the first reports. ss, as = sense and antisense strand; [s4r] = 4'-thioribose; [fl2r] = 2'-fluoro
parameterMeasured: target mRNA knockdown (%)

- substance: "RNA1{r(A)p.r(A)p.r(C)p.r(C)p.r(C)p.r(A)p.r(A)p.r(A)p.r(G)p.r(G)p.r(G)p.r(G)p.r(A)p.r(G)p.r(U)p.m(U)p.r(G)p.r(C)p.r(U)p.r(T)p.r(T)}|RNA2{r(A)p.r(G)p.r(C)p.r(A)p.r(A)p.r(C)p.r(U)p.r(C)p.r(C)p.r(C)p.r(C)p.r(U)p.r(U)p.m(U)p.r(G)p.r(G)p.r(G)p.r(U)p.r(U)p.r(T)p.r(T)}$$$RNA1{StrandType:ss}|RNA2{StrandType:as}$"
  observedMeasurement: 83
- substance: "RNA1{r(C)p.r(G)p.r(A)p.r(G)p.m(U)p.r(G)p.r(U)p.r(C)p.m(U)p.r(A)p.r(A)p.r(C)p.r(G)p.r(G)p.r(G)p.r(A)p.r(G)p.r(C)p.r(C)p.r(T)p.r(T)}|RNA2{r(G)p.r(G)p.r(C)p.r(U)p.r(C)p.r(C)p.r(C)p.r(G)p.r(U)p.m(U)p.r(A)p.r(G)p.r(A)p.m(C)p.r(A)p.r(C)p.r(U)p.r(C)p.r(G)p.r(T)p.r(T)}$$$RNA1{StrandType:ss}|RNA2{StrandType:as}$"
  observedMeasurement: 65
- substance: "RNA1{[s4r](C)p.[s4r](G)p.[s4r](U)p.[s4r](A)p.[s4r](C)p.[s4r](G)p.r(C)p.r(G)p.r(G)p.r(A)p.r(A)p.r(U)p.r(A)p.r(C)p.r(U)p.r(U)p.r(C)p.r(G)p.r(A)p.r(T)p.r(T)}|RNA2{r(U)p.r(C)p.r(G)p.r(A)p.r(A)p.r(G)p.r(U)p.r(A)p.r(U)p.r(U)p.r(C)p.r(C)p.r(G)p.r(C)p.r(G)p.r(U)p.r(A)p.r(C)p.r(G)p.r(T)p.r(T)}$$$RNA1{StrandType:ss}|RNA2{StrandType:as}$"
  observedMeasurement: 94
- substance: "RNA1{m(A)p.r(A)p.m(A)p.r(C)p.m(C)p.r(U)p.m(C)p.r(A)p.m(G)p.r(C)p.m(C)p.r(C)p.m(U)p.r(A)p.m(A)p.r(C)p.m(G)p.r(G)p.m(U)p.r(T)p.r(T)}|RNA2{r(A)p.m(C)p.m(C)p.r(G)p.r(U)p.r(U)p.r(A)p.r(G)p.r(G)p.r(G)p.m(C)p.r(U)p.r(G)p.r(A)p.r(G)p.r(G)p.r(U)p.r(U)p.r(U)p.r(T)p.r(T)}$$$RNA1{StrandType:ss}|RNA2{StrandType:as}$"
  observedMeasurement: 28
- substance: "RNA1{r(A)p.r(A)p.r(A)p.r(C)p.r(G)p.r(A)p.m(G)p.r(A)p.r(G)p.r(A)p.r(G)p.r(C)p.r(C)p.m(C)p.r(A)p.r(C)p.r(C)p.r(U)p.r(U)p.r(T)p.r(T)}|RNA2{r(A)p.r(A)p.r(G)p.r(G)p.m(U)p.m(G)p.r(G)p.r(G)p.r(C)p.r(U)p.r(C)p.r(U)p.r(C)p.r(U)p.r(C)p.r(G)p.r(U)p.r(U)p.r(U)p.r(T)p.r(T)}$$$RNA1{StrandType:ss}|RNA2{StrandType:as}$"
  observedMeasurement: 56
- substance: "RNA1{[fl2r](A)p.r(G)p.[fl2r](A)p.r(C)p.[fl2r](U)p.r(A)p.[fl2r](A)p.r(G)p.[fl2r](C)p.r(C)p.[fl2r](C)p.r(A)p.[fl2r](A)p.r(A)p.[fl2r](A)p.r(G)p.[fl2r](G)p.r(G)p.[fl2r](C)p.r(T)p.r(T)}|RNA2{r(G)p.r(C)p.r(C)p.r(C)p.r(U)p.r(U)p.r(U)p.r(U)p.r(G)p.r(G)p.r(G)p.r(C)p.r(U)p.r(U)p.r(A)p.r(G)p.r(U)p.r(C)p.r(U)p.r(T)p.r(T)}$$$RNA1{StrandType:ss}|RNA2{StrandType:as}$"
  observedMeasurement: 26
- substance: "RNA1{r(A)p.r(C)p.r(G)p.r(G)p.r(C)p.r(U)p.r(C)p.r(G)p.r(C)p.r(U)p.[fl2r](A)p.r(C)p.r(C)p.r(C)p.r(U)p.r(C)p.r(G)p.r(A)p.r(C)p.r(T)p.r(T)}|RNA2{r(G)p.r(U)p.r(C)p.r(G)p.r(A)p.r(G)p.r(G)p.r(G)p.r(U)p.r(A)p.r(G)p.r(C)p.r(G)p.r(A)p.r(G)p.r(C)p.r(C)p.r(G)p.r(U)p.r(T)p.r(T)}$$$RNA1{StrandType:ss}|RNA2{StrandType:as}$"
  observedMeasurement: 83
- substance: "RNA1{r(U)p.r(C)p.r(C)p.r(G)p.r(G)p.r(C)p.[fl2r](U)p.r(A)p.r(A)p.r(C)p.r(U)p.r(C)p.r(U)p.r(G)p.r(A)p.r(G)p.r(G)p.r(A)p.r(C)p.r(T)p.r(T)}|RNA2{r(G)p.r(U)p.r(C)p.r(C)p.r(U)p.r(C)p.r(A)p.r(G)p.r(A)p.r(G)p.r(U)p.[fl2r](U)p.r(A)p.r(G)p.r(C)p.r(C)p.r(G)p.r(G)p.r(A)p.r(T)p.r(T)}$$$RNA1{StrandType:ss}|RNA2{StrandType:as}$"
  observedMeasurement: 82
- substance: "RNA1{m(A)p.r(A)p.m(C)p.r(U)p.m(U)p.r(C)p.m(U)p.r(G)p.m(G)p.r(G)p.m(A)p.r(G)p.m(C)p.r(C)p.m(U)p.r(C)p.m(C)p.r(A)p.m(A)p.r(T)p.r(T)}|RNA2{r(U)p.r(U)p.r(G)p.r(G)p.m(A)p.r(G)p.r(G)p.r(C)p.r(U)p.r(C)p.r(C)p.r(C)p.m(A)p.r(G)p.m(A)p.m(A)p.r(G)p.r(U)p.r(U)p.r(T)p.r(T)}$$$RNA1{StrandType:ss}|RNA2{StrandType:as}$"
  observedMeasurement: 42

* * *

- conditionSet: siRNA
HELM strings list units from the 5' end as sugar, base in round brackets, then linkage (d deoxyribose, r ribose, m 2'-O-methyl, p phosphodiester). Strings are as the collection lists them, not checked against the first reports. ss, as = sense and antisense strand; [s4r] = 4'-thioribose; [fl2r] = 2'-fluoro
parameterMeasured: target mRNA knockdown (%)

- substance: "RNA1{r(G)p.r(A)p.r(A)p.r(G)p.r(A)p.[fl2r](U)p.r(A)p.r(G)p.r(G)p.r(A)p.r(A)p.r(G)p.r(G)p.r(G)p.r(G)p.[fl2r](C)p.[fl2r](U)p.[fl2r](U)p.[fl2r](C)p.r(T)p.r(T)}|RNA2{r(G)p.r(A)p.r(A)p.r(G)p.r(C)p.r(C)p.r(C)p.r(C)p.r(U)p.r(U)p.r(C)p.r(C)p.r(U)p.r(A)p.r(U)p.r(C)p.r(U)p.r(U)p.r(C)p.r(T)p.r(T)}$$$RNA1{StrandType:ss}|RNA2{StrandType:as}$"
  parameterMeasured: "target mRNA knockdown"
  observedMeasurement: 45
- substance: "RNA1{m(U)p.r(U)p.m(A)p.r(C)p.m(A)p.r(A)p.m(A)p.r(G)p.m(G)p.r(A)p.m(U)p.r(C)p.m(U)p.r(C)p.m(C)p.r(U)p.m(C)p.r(C)p.m(C)p.r(T)p.r(T)}|RNA2{r(G)p.r(G)p.r(G)p.m(A)p.r(G)p.r(G)p.m(A)p.r(G)p.m(A)p.r(U)p.r(C)p.r(C)p.r(U)p.r(U)p.r(U)p.r(G)p.r(U)p.m(A)p.m(A)p.r(T)p.r(T)}$$$RNA1{StrandType:ss}|RNA2{StrandType:as}$"
  parameterMeasured: "target mRNA knockdown"
  observedMeasurement: 51
- substance: "RNA1{r(C)p.r(G)p.r(U)p.r(A)p.r(C)p.r(G)p.r(C)p.r(G)p.r(G)p.r(A)p.r(A)p.r(U)p.r(A)p.r(C)p.r(U)p.r(U)p.r(C)p.r(G)p.r(A)p.r(T)p.r(T)}|RNA2{r(U)p.r(C)p.r(G)p.r(A)p.r(A)p.r(G)p.r(U)p.r(A)p.r(U)p.r(U)p.r(C)p.r(C)p.r(G)p.m(C)p.m(G)p.m(U)p.m(A)p.m(C)p.m(G)p.r(T)p.r(T)}$$$RNA1{StrandType:ss}|RNA2{StrandType:as}$"
  parameterMeasured: "target mRNA knockdown"
  observedMeasurement: 30.8
- substance: "RNA1{r(A)p.r(G)p.r(A)p.r(A)p.r(A)p.m(C)p.r(G)p.m(C)p.r(A)p.r(G)p.m(U)p.r(A)p.r(A)p.m(U)p.m(C)p.m(C)p.r(G)p.r(G)p.r(A)p.r(T)p.r(T)}|RNA2{m(U)p.m(C)p.m(C)p.r(G)p.r(G)p.r(A)p.m(U)p.m(U)p.r(A)p.m(C)p.m(U)p.r(G)p.m(C)p.r(G)p.m(U)p.m(U)p.m(U)p.m(C)p.m(U)p.r(T)p.r(T)}$$$RNA1{StrandType:ss}|RNA2{StrandType:as}$"
  parameterMeasured: "target mRNA knockdown"
  observedMeasurement: 80
- substance: "RNA1{[s4r](A)p.[s4r](A)p.[s4r](A)p.[s4r](C)p.r(A)p.r(U)p.r(G)p.r(C)p.r(A)p.r(G)p.r(A)p.r(A)p.r(A)p.r(A)p.r(U)p.[s4r](G)p.[s4r](C)p.[s4r](U)p.[s4r](G)p.r(T)p.r(T)}|RNA2{[s4r](C)p.[s4r](A)p.r(G)p.r(C)p.r(A)p.r(U)p.r(U)p.r(U)p.r(U)p.r(C)p.r(U)p.r(G)p.r(C)p.r(A)p.r(U)p.r(G)p.r(U)p.[s4r](U)p.[s4r](U)p.r(T)p.r(T)}$$$RNA1{StrandType:ss}|RNA2{StrandType:as}$"
  parameterMeasured: "target mRNA knockdown"
  observedMeasurement: 66.3
